- System: human fibroblast
measuredEndpoint: concentrations at which not toxic, human fibroblast cytotoxicity

Please review the entries below; each comes with its answer.
CNC(=O)Cc1ccc(Oc2nc3ccc(F)cc3s2)cc1 :: ≥ 100 µM
CCOC(=O)[C@@H](C)Oc1ccc(Oc2nc3ccc(F)cc3s2)cc1 :: ≥ 100 µM
CC(C(=O)O)c1ccc(Oc2nc3ccc(F)cc3s2)cc1 (stereo not shown) :: ≥ 100 µM
CONC(=O)C(C)c1ccc(Oc2nc3ccc(Cl)cc3s2)cc1 (racemic) :: ≥ 100 µM

Batch request: concentrations at which not toxic, human fibroblast cytotoxicity per item, same order as input.
1. CNC(=O)C(C)c1ccc(Oc2nc3cc(F)c(F)cc3s2)cc1 (stereo not shown)
2. CNC(=O)Cc1ccc(Oc2nc3ccc(Cl)cc3s2)cc1

Given back:
≥ 100 µM
≥ 100 µM

Batch request: concentrations at which not toxic, human fibroblast cytotoxicity per item, same order as input.
1. COc1ccc2nc(Oc3ccc(NC(=O)NC(C)C)cc3)sc2c1
2. CC(C)NC(=O)Nc1ccc(Oc2nc3ccc(Cl)cc3s2)cc1
3. CC(C)NC(=O)Nc1ccc(Oc2ccc3cc(Cl)ccc3n2)cc1
4. CONC(=O)C(O)c1ccc(Oc2nc3ccc(Cl)cc3s2)cc1 (stereo not shown)

Given back:
≥ 100 µM
≥ 100 µM
≥ 100 µM
≥ 100 µM
